system: SNB-75 CNS; test: NCI tumour cell line growth inhibition, 48 h; in the data active = GI50 below about 0.43 µM; inactive = the rest
The reply should be one of these categories: active, inactive

For this molecule, state the assay outcome: CSc1ccc(/C=C2\C=C(CC(=O)NCc3ccc(C(=O)c4ccccc4)cc3)c3cc(F)ccc32)cc1
active

Thanks! And COC(=O)C1=C(C(=O)OC)SC(=C(Cl)C(=S)Sc2ccccc2N)S1 ?
inactive

Thanks! And O=C1CC(=O)OC(c2ccc([N+](=O)[O-])cc2)O1 ?
inactive

Thanks! And FCc1ncc(-c2ccc(C(F)(F)F)cc2)c(NC2CCCCCC2)n1 ?
inactive

Thanks! And NC(=O)c1ccc(C2C3=C(CCCC3=O)OC3=C2C(=O)c2ccccc2C3=O)cc1 (configuration not stated) ?
active

Thanks! And CC(C)(C)NC(=O)[C@H]1C[C@H]2CCCC[C@H]2CN1C[C@@H](O)[C@H](Cc1ccccc1)NC(=O)[C@H](CC(N)=O)NC(=O)c1ccc2ccccc2n1 ?
inactive

Thanks! And COc1ccc(C(=O)N2c3ccccc3Sc3ccccc32)c(C(F)(F)F)c1 ?
active

Thanks! And COc1ccc(-c2cn[nH]c2-c2cc(OC)c3c(c2)OCCO3)cc1 ?
active

Thanks! And CCC(c1cccc(O)c1)C(CC)c1cccc(O)c1 (configuration not stated) ?
inactive

Thanks! And Cc1cc(-c2nnc3n2CCCCC3)c(C)n1-c1ccc(Cl)c(Cl)c1 ?
inactive

Thanks! And O=[N+]([O-])c1ccc2c(c1)[O][Sn][O]2 ?
inactive

Thanks! And COC(=O)CCC1=C(C)/C(=C/c2[nH]c(-c3ccc[nH]3)cc2OC)N=C1C ?
active

====

tested on: HCC-2998 colon; test: NCI tumour cell line growth inhibition, 48 h
Could you please report measured GI50 for the items listed next?

Query for HCC-2998 colon: what GI50 does the record show for N.N.N.N.N.N.O=N[O-].[Br-].[Co+3].[Co+3].[OH3+].[OH3+] ?
58500 nM

Thanks! And CC(C)[C@H]1C(=O)N[C@@H](CCCN=C(N)N)C(=O)NCC(=O)N[C@@H](CC(=O)O)C(=O)N[C@H](Cc2ccccc2)C(=O)N1C ?
> 100000 nM

Thanks! And Cc1cc(-c2nnc3n2CCCCC3)c(C)n1-c1ccc(Cl)c(Cl)c1 ?
14000 nM

Thanks! And O=[N+]([O-])c1ccc2c(c1)[O][Sn][O]2 ?
> 150 µg/mL

Thanks! And COc1ccc(C(=O)N2c3ccccc3Sc3ccccc32)c(C(F)(F)F)c1 ?
467 nM

Thanks! And COc1ccc(Cl)cc1Nc1nc(C(F)(F)F)ccc1C(=O)N/N=C/c1cc(OC)c(OC)c(OC)c1 ?
2240 nM

Thanks! And Cc1cc(N/N=C/c2nc(-c3ccc(Cl)cc3)oc2C)c2cc(Cl)ccc2n1 ?
2860 nM

Thanks! And N#C[C@@H]1C(n2ccc(N)nc2=O)O[C@H](CO)[C@H]1O (stereo not given in full) ?
> 100000 nM

Thanks! And COc1ccc(-c2cn[nH]c2-c2cc(OC)c3c(c2)OCCO3)cc1 ?
673 nM

Thanks! And COC(=O)CCC1=C(C)/C(=C/c2[nH]c(-c3ccc[nH]3)cc2OC)N=C1C ?
1370 nM

====

system: MDA-MB-435; test: NCI tumour cell line growth inhibition, 48 h
measured_property: TGI

Which TGI is reported for this compound? O=C(N[C@H]1c2ccsc2/C(=N/O)[C@H]1O)C(F)(F)F
> 100 µM

Thanks! And CC(C)OP(=O)(OC(C)C)C(C(C)C)N(C)/C(F)=N/C(F)(F)F (centres undefined) ?
> 100 µM

Thanks! And CC1(COS(=O)(=O)OCC2(C)COS(=O)(=O)OC2)COS(=O)(=O)OC1 ?
> 78.4 µM

Thanks! And O=C(O)CSc1ncccc1[N+](=O)[O-] ?
> 100 µM

====

tested on: KM12 colon; experiment: NCI tumour cell line growth inhibition, 48 h
measured_property: TGI

Which TGI is reported for this compound? NCCCCNCCCNC(=O)c1nc(-c2csc(CCN)n2)sc1Cl
> 100 µM

Thanks! And C/C(=N\NC(N)=S)c1nc2ccc(Cl)cc2[nH]1 ?
16.2 µM

Thanks! And CCCCCCN(CCCCCC)CC(O)c1ccc2c3c(cccc13)CC2 (centres undefined) ?
18.9 µM

Thanks! And CN(C)CCCOCCn1c2c(c3ccccc31)CCCC2 ?
43.1 µM

Thanks! And CC[C@@]1(O)C(=O)OCc2c1cc1n(c2=O)Cc2cc3cc(N)ccc3nc2-1 ?
2.9 µM

Thanks! And COc1cc(C2S/C(=C/c3ccccc3)C(=O)N2c2ccc(Cl)c(Cl)c2)cc(OC)c1OC (centres undefined) ?
> 70.3 µM

Thanks! And C[n+]1c2ccccc2c(C(=O)Nc2ccc(S(=O)(=O)N=C(N)N)cc2)c2ccccc21 ?
> 100 µM

Thanks! And O=C1CC(=O)OC(c2ccc([N+](=O)[O-])cc2)O1 ?
4.03 µM

Thanks! And CC(=O)Oc1ccc(C2COc3cc(OC(C)=O)c(OC(C)=O)cc3C2)cc1 (centres undefined) ?
69.5 µM

Thanks! And COc1cc(S(=O)(=O)Nc2ccc(-c3csc(N4C(=O)CSC4c4ccccc4)n3)cc2)ccc1Cl (centres undefined) ?
> 100 µM

Thanks! And C[C@]12CC[C@@H]3c4ccc(O)cc4C(O)C[C@H]3[C@@H]1CCC2=O (some centres undefined) ?
> 100 µM

Thanks! And CC(C)(C)NC(=O)[C@H]1C[C@H]2CCCC[C@H]2CN1C[C@@H](O)[C@H](Cc1ccccc1)NC(=O)[C@H](CC(N)=O)NC(=O)c1ccc2ccccc2n1 ?
34.8 µM

Thanks! And O=C1c2cccc3cccc(c23)C(=O)N1CCCNOCCONCCCN1C(=O)c2cccc3cccc(c23)C1=O ?
> 100 µM

Thanks! And c1ccc2c(Cc3nnc4sc(SSc5nn6c(Cc7c[nH]c8ccccc78)nnc6s5)nn34)c[nH]c2c1 ?
70.3 µM

Thanks! And CC(C)(C)OC[C@H](O)CC#N ?
> 100 µM

Thanks! And COc1ccc(Cl)cc1Nc1nc(C(F)(F)F)ccc1C(=O)N/N=C/c1cc(OC)c(OC)c(OC)c1 ?
20.8 µM

Thanks! And S=C(S)NCC1CCC(CNC(=S)S)CC1 (centres undefined) ?
42.5 µM

Thanks! And Cn1nc(S(N)(=O)=O)s/c1=N/C(N)=S ?
> 100 µM

Thanks! And COC(=O)C1(Cc2ccccc2)Cc2ccccc2C1 ?
> 100 µM

Thanks! And Cc1sc2ccccc2[n+]1CCC(=O)O ?
> 100 µM

Thanks! And O=C(O)CSc1ncccc1[N+](=O)[O-] ?
> 100 µM

Thanks! And O=c1[nH]c(Nc2cccc(Cl)c2)nc2nc[nH]c12 ?
> 100 µM

Thanks! And COc1ccc2nc3cc(Cl)ccc3c(NCCNCCCNC(=O)c3cc(-c4ccccc4)nc4ccccc34)c2c1 ?
> 100 µM

Thanks! And CCOc1ccccc1NC(=O)CCc1nc(=S)[nH][nH]1 ?
> 100 µM

Thanks! And C1=CC=C2NCCOCCNC3=CC=CC=CC3=NCCOCCN=C2C=C1 ?
> 100 µM

Thanks! And COc1cc(/C=C2/N=C(c3ccccc3)N(C3=NNC4(C(=O)N3)c3ccccc3-c3ccccc34)NC2=O)ccc1O ?
42.9 mg/L

Thanks! And O=C(NCCCNCCNC(=O)c1cc(-c2ccccc2)nc2ccccc12)c1cc(-c2ccccc2)nc2ccccc12 ?
3.55 µM

Thanks! And CC(C)[C@H]1C(=O)N[C@@H](CCCN=C(N)N)C(=O)NCC(=O)N[C@@H](CC(=O)O)C(=O)N[C@H](Cc2ccccc2)C(=O)N1C ?
> 100 µM

Thanks! And NC(=O)c1ccc(C2C3=C(CCCC3=O)OC3=C2C(=O)c2ccccc2C3=O)cc1 (centres undefined) ?
4.52 µM

Thanks! And O=[N+]([O-])c1ccc2c(c1)[O][Sn]([I])([I])[O]2 ?
> 100 µM

Thanks! And C[C@]12CC[C@@H]3c4ccc(OC(=O)c5ccccc5)cc4CC[C@H]3[C@@H]1CC[C@@H]2Oc1c2ccccc2nc2ccccc12 ?
44 µM

Thanks! And CC(=O)OC1[C@H]2c3cc4c(cc3CN3CCC(=C[C@@H]1O)C23)OCO4 (some centres undefined) ?
> 100 µM

Thanks! And O=C1CCC(O)=C1O ?
> 100 µM

Thanks! And CNC(=S)N/N=C/c1ccc([N+](=O)[O-])s1 ?
> 10 µM

====

test system: CCRF-CEM leukemia; experiment: NCI tumour cell line growth inhibition, 48 h
Could you please report measured GI50 for the items listed next?

Which GI50 is reported for this compound? CCOc1c(Cl)cc(CNC(C)C(O)c2ccccc2)cc1OC (centres undefined)
35600 nM

Thanks! And C[C-](O)O.O/C(=C\[C-](O)c1ccccc1)c1ccccc1.O/C(=C\[C-](O)c1ccccc1)c1ccccc1.[Nd+3] (centres undefined) ?
2210 nM

Thanks! And Cc1cc(N/N=C/c2nc(-c3ccc(Cl)cc3)oc2C)c2cc(Cl)ccc2n1 ?
1590 nM

Thanks! And O=C1CCCN1CC#CCN1CCCC1 ?
> 100000 nM
